Hey, just so you know, these numbers are from patent US9718773B2.

ASSAY_ENDPOINT: melting point

{"columns": ["MOLECULE", "ASSAY_ENDPOINT", "OBS_VALUE"],
 "data": [
  ["Cc1ccc(S(=O)(=O)N2C[C@H]([C@@H](NC(=O)OC(C)(C)C)c3cccs3)[C@H](O)C2)cc1", "melting point", "186 to 189 °C"],
  ["Cc1ccc(S(=O)(=O)N2C[C@H]([C@@H](NC(=O)OC(C)(C)C)c3ccc(Cl)cc3)[C@H](O)C2)cc1", "melting point", "203 to 205 °C"],
  ["Cc1ccc(S(=O)(=O)N2C[C@H]([C@@H](NC(=O)OC(C)(C)C)c3ccccc3)[C@H](O)C2)cc1", "melting point", "197 to 200 °C"],
  ["CCOC(=O)C[C@@H]1[C@@H](C(NC(=O)OC(C)(C)C)c2ccc(Cl)cc2)CN(S(=O)(=O)c2ccc(C)cc2)[C@@H]1C(=O)OCC (stereo partly shown)", "melting point", "155 to 156 °C"],
  ["CCOC(=O)C[C@@H]1[C@@H](C(NC(=O)OC(C)(C)C)c2ccc(C(F)(F)F)cc2)CN(S(=O)(=O)c2ccc(C)cc2)[C@@H]1C(=O)OCC (stereo partly shown)", "melting point", "169 to 170 °C"],
  ["CCOC(=O)C[C@@H]1[C@@H](C(NC(=O)OC(C)(C)C)c2ccccc2)CN(S(=O)(=O)c2ccc(C)cc2)[C@@H]1C(=O)OCC (stereo partly shown)", "melting point", "150 to 151 °C"]
]}

Asked: What value of melting point has been reported for the following molecule? CCOC(=O)C[C@@H]1[C@@H](C(NC(=O)OC(C)(C)C)c2ccc3ccccc3c2)CN(S(=O)(=O)c2ccc(C)cc2)[C@@H]1C(=O)OCC (stereo partly shown)
Given back: 160 to 161 °C
